# TARGET_OR_TEST_SYSTEM: HLA-B*58:01
# PROTOCOL_NOTES: IEDB peptide-MHC binding, purified MHC/competitive/radioactivity; filed as Kd, often an IC50 or EC50 that approximates it; bounds were set here for any values at or beyond the usual limits of such assays
# EXPERIMENTAL_CONTEXT: source organism: Dengue virus 1 Singapore/S275/1990
ENDPOINT_NAME: Kd
Answer format: value, then unit.

Q. Quick one: Kd of NASDRMGMGT ?
A. 5.12 µM

----------
# TARGET_OR_TEST_SYSTEM: HLA-B*07:02
# PROTOCOL_NOTES: IEDB peptide-MHC binding, purified MHC/direct/fluorescence; filed as Kd, often an IC50 or EC50 that approximates it; bounds were set here for any values at or beyond the usual limits of such assays
# EXPERIMENTAL_CONTEXT: source organism: Coxiella burnetii
ENDPOINT_NAME: Kd

Q. // lookup Kd | system=HLA-B*07:02 | key= EEMPLVWDL
A. ≥ 20 µM

----------
# TARGET_OR_TEST_SYSTEM: HLA-A*30:02
# PROTOCOL_NOTES: IEDB peptide-MHC binding, purified MHC/competitive/radioactivity; filed as Kd, often an IC50 or EC50 that approximates it; bounds were set here for any values at or beyond the usual limits of such assays
# EXPERIMENTAL_CONTEXT: source organism: Lymphocytic choriomeningitis virus (strain WE)
ENDPOINT_NAME: pKd
Convention used: pKd is expressed as -log10 of the molar concentration.

Q. # value lookup — system HLA-A*30:02, readout pKd, item MTKEASREY
A. 7.17

----------
# TARGET_OR_TEST_SYSTEM: HLA-A*24:03
# PROTOCOL_NOTES: IEDB peptide-MHC binding, purified MHC/direct/fluorescence; filed as Kd, often an IC50 or EC50 that approximates it; bounds were set here for any values at or beyond the usual limits of such assays
# EXPERIMENTAL_CONTEXT: source organism: Giardia lamblia ATCC 50803
ENDPOINT_NAME: Kd (nM)
Quick reminder: number only, in nM, skip the unit.

Q. Give Kd (HLA-A*24:03) of the following sequence: GMLSSLHTL
A. 215

----------
# TARGET_OR_TEST_SYSTEM: HLA-A*32:07
# PROTOCOL_NOTES: IEDB peptide-MHC binding, purified MHC/competitive/fluorescence; filed as Kd, often an IC50 or EC50 that approximates it; bounds were set here for any values at or beyond the usual limits of such assays
# EXPERIMENTAL_CONTEXT: source organism: Shewanella sp. W3-18-1
ENDPOINT_NAME: Kd (nM)
I only need the number, in nM, no unit after it.

Q. I have this sequence here, LMMSSPPPI , and I need its recorded Kd.
A. 50.8

----------
# TARGET_OR_TEST_SYSTEM: HLA-A*03:01
# PROTOCOL_NOTES: IEDB peptide-MHC binding, purified MHC/direct/fluorescence; filed as Kd, often an IC50 or EC50 that approximates it; bounds were set here for any values at or beyond the usual limits of such assays
# EXPERIMENTAL_CONTEXT: source organism: Vibrio cholerae
pKd: −log10 of the molar value.
ENDPOINT_NAME: pKd

Q. pKd lookup needed for FLHPKHWGT , thanks.
A. ≤ 4.70

----------
# TARGET_OR_TEST_SYSTEM: HLA-A*02:03
# PROTOCOL_NOTES: IEDB peptide-MHC binding, purified MHC/competitive/radioactivity; filed as Kd, often an IC50 or EC50 that approximates it; bounds were set here for any values at or beyond the usual limits of such assays
# EXPERIMENTAL_CONTEXT: source organism: Vaccinia virus WR
ENDPOINT_NAME: Kd (nM)
Could you give me the number in nM? Just the number is fine.

[
  {
    "ORDERED_RESIDUES": "NLETYTRPEI",
    "Kd (nM)": 1500
  },
  {
    "ORDERED_RESIDUES": "FTILEYLYIM",
    "Kd (nM)": 3200
  },
  {
    "ORDERED_RESIDUES": "LAYYNSCMLT",
    "Kd (nM)": 15.9
  }
]

Q. Given the entry YIALCKVTV , report its measured Kd.
A. 24

Q. Input NITHTNITTL
A. 5020

Q. Repeat with QQNNSFIIST
A. 5040

Q. Please answer likewise for TINVNSLAL
A. 1540

Q. Same read-out for YVSPTEMVDV ?
A. 49.8

Q. Queued: RLRYNLCKYL
A. 0.304

Q. Now this one: RIITILQDIV
A. 209

Q. Now try QLFKYVPSA .
A. 7.81

Q. Another sequence: QIMECSRML
A. 1380

Q. Please answer likewise for DITNILGGVL
A. 3680

----------
# TARGET_OR_TEST_SYSTEM: HLA-A*24:03
# PROTOCOL_NOTES: IEDB peptide-MHC binding, purified MHC/competitive/fluorescence; filed as Kd, often an IC50 or EC50 that approximates it; bounds were set here for any values at or beyond the usual limits of such assays
# EXPERIMENTAL_CONTEXT: source organism: Vibrio antiquarius
ENDPOINT_NAME: Kd

Q. // Kd lookup, key: VTGCASLYV
A. ≥ 20 µM

----------
# TARGET_OR_TEST_SYSTEM: HLA-B*07:02
# PROTOCOL_NOTES: IEDB peptide-MHC binding, purified MHC/competitive/radioactivity; filed as Kd, often an IC50 or EC50 that approximates it; bounds were set here for any values at or beyond the usual limits of such assays
# EXPERIMENTAL_CONTEXT: source organism: Mammarenavirus brazilense
Examples of sequences with documented pKd follow.
pKd here: minus log base 10 of the concentration, concentration in moles per litre.

// worked examples, pKd included
[
  {
    "ORDERED_RESIDUES": "LPDALLFTL",
    "pKd": 6.70
  },
  {
    "ORDERED_RESIDUES": "NPIVLHNGM",
    "pKd": 5.75
  }
]

// below: pKd requested for another sequence
Q. Return reported pKd; argument: QPGLLSYVI
A. 4.91

----------
Property: pKd; scope: individual sequences
# TARGET_OR_TEST_SYSTEM: HLA-A*03:01
# PROTOCOL_NOTES: IEDB peptide-MHC binding, purified MHC/competitive/radioactivity; filed as Kd, often an IC50 or EC50 that approximates it; bounds were set here for any values at or beyond the usual limits of such assays
# EXPERIMENTAL_CONTEXT: source organism: Vaccinia virus WR
The quantity pKd is defined as the negative base-10 logarithm of the molar concentration.

Look over these answered cases.
[
  {
    "ORDERED_RESIDUES": "STYSDICSK",
    "pKd": 7.63
  },
  {
    "ORDERED_RESIDUES": "FSTSAADIKR",
    "pKd": 4.74
  },
  {
    "ORDERED_RESIDUES": "EALEYLSELK",
    "pKd": 6.34
  },
  {
    "ORDERED_RESIDUES": "KSDNIINIGY",
    "pKd": 6.97
  }
]

Q. I would be grateful if you could share the reported pKd for KFGKNHIHR .
A. 4.91

Q. Let us now turn to SQIFNIISY
A. 6.17

Q. Entry to check: KIVNGVLSR
A. 6.48

Q. Same lookup for PFKVINLPK , please.
A. 5.02

Q. Again, but for YIFPGDKTSY
A. 6.59

Q. Consider next the sequence VLNRHAITMY in the same way.
A. 7.03

Q. ELYDTSPTK , same question.
A. 7.98

Q. Do the same for TQFNFNGHTY please
A. 6.66

Q. // query: KAFNHASVK
A. 8.21

Q. Now try EQQQSFMPK .
A. 5.67

Q. Param item: NILGGVLHTK
A. 7.41

----------
# TARGET_OR_TEST_SYSTEM: HLA-B*07:02
# PROTOCOL_NOTES: IEDB peptide-MHC binding, purified MHC/direct/fluorescence; filed as Kd, often an IC50 or EC50 that approximates it; bounds were set here for any values at or beyond the usual limits of such assays
# EXPERIMENTAL_CONTEXT: source organism: Stutzerimonas stutzeri
ENDPOINT_NAME: Kd

Q. For the sequence shown here, GRGQILLGK , give the reported Kd.
A. ≥ 20 µM

----------
# TARGET_OR_TEST_SYSTEM: HLA-B*27:03
# PROTOCOL_NOTES: IEDB peptide-MHC binding, purified MHC/competitive/fluorescence; filed as Kd, often an IC50 or EC50 that approximates it; bounds were set here for any values at or beyond the usual limits of such assays
# EXPERIMENTAL_CONTEXT: source organism: Tai Forest ebolavirus
pKd: −log10 of the molar value.
ENDPOINT_NAME: pKd

Q. # query: pKd of entry FAEGVIAFL
A. ≤ 4.70
